These data points were gathered from patent US20190328691A1.

# System: Staphylococcus aureus (BAA-1717)
# Protocol Description: Checkerboard combination / MIC assay with S. aureus BAA-1717 (MRSA)
# Assay type: cell-based
# Measurement Setup: Chlopam 0.5 μg/mL + labelled antibiotic at MIC of same line; S. aureus ATCC BAA-1717
Exercise: for every item that follows, state its recorded FICI of combination with Chlopam.
Numbers only.

{"Compound": "CN[C@H](CC(C)C)C(=O)N[C@H]1C(=O)N[C@@H](CC(N)=O)C(=O)N[C@H]2C(=O)N[C@H]3C(=O)N[C@H](C(=O)N[C@H](C(=O)O)c4cc(O)cc(O)c4-c4cc3ccc4O)[C@H](O)c3ccc(c(Cl)c3)Oc3cc2cc(c3O[C@@H]2O[C@H](CO)[C@@H](O)[C@H](O)[C@H]2O[C@H]2C[C@](C)(N)[C@H](O)[C@H](C)O2)Oc2ccc(cc2Cl)[C@H]1O [Vancomycin]", "FICI of combination with Chlopam": 1.0}
{"Compound": "C/C(=C\\C(=O)OCCCCCCCCC(=O)O)C[C@@H]1OC[C@H](C[C@@H]2O[C@H]2[C@@H](C)[C@H](C)O)[C@@H](O)[C@H]1O [Mupirocin]", "FICI of combination with Chlopam": 1.0}

Give FICI of combination with Chlopam for each listed item.
1. CO/N=C(\C(=O)N[C@@H]1C(=O)N2C(C(=O)[O-])=C(C[N+]3(C)CCCC3)CS[C@H]12)c1csc(N)n1 [Cefepime]
2. CCCCCCCCCC(=O)N[C@@H](Cc1c[nH]c2ccccc12)C(=O)N[C@H](CC(N)=O)C(=O)N[C@@H](CC(=O)O)C(=O)N[C@@H]1C(=O)NCC(=O)N[C@@H](CCCN)C(=O)N[C@@H](CC(=O)O)C(=O)N[C@H](C)C(=O)N[C@@H](CC(=O)O)C(=O)NCC(=O)N[C@H](CO)C(=O)N[C@@H]([C@H](C)CC(=O)O)C(=O)N[C@@H](CC(=O)c2ccccc2N)C(=O)O[C@@H]1C [Daptomycin]

Key:
0.5
1.0
